# System: DU-145 prostate
# measurement_protocol: NCI-60 one-dose screen, 48 h (100 = growth as untreated, 0 = no growth, -100 = all killed)
# condition_label: 10 µM unless noted
Compounds without any hit were thinned out: in the full panel of roughly 83,000, 20% have a hit.
property: growth (%)

molecule	property	unit_of_measurement	recorded_number
S=C(Nc1ccc(-c2nc(N3CCOCC3)c3cccn3n2)cc1)Nc1cccnc1	growth	%	18.6
C=C1C(=O)O[C@H]2[C@H]1CC/C(COC(=O)CSCCSCC(=O)OC/C1=C/CC[C@@]3(C)O[C@H]3[C@H]3OC(=O)C(=C)[C@@H]3CC1)=C\CC[C@@]1(C)O[C@@H]21	growth	%	32.3
COc1cc2c(c(OC)c1OC)C(=O)CC(c1cccc(NC(=O)c3ccc(Br)cc3)c1)O2 (stereo not drawn)	growth	%	58.7
Cc1ccc(-c2nc(N3CCNCC3)c3oc(-c4ccccc4)nc3n2)cc1	growth	%	-93.1
CC1(C)CCC(S(=O)(=O)c2ccc3c(c2)/C(=N\O)c2cc(S(=O)(=O)N4CCC(O)(c5cccc(C(F)(F)F)c5)CC4)ccc2-3)CC1	growth	%	-83.8
Fc1ccc2[nH]cc(-c3nonc3-c3c[nH]c4ccc(Br)cc34)c2c1	growth	%	42
Cc1nnc(-n2c(O)cc(=O)n(-c3ccccc3)c2=S)nc1/C=C/c1ccc(N(C)C)cc1	growth	%	73.7
COc1ccc2c3c([nH]c2c1)C(=O)c1nc(C)ccc1C3=O	growth	%	-73.2
